# Target Or Test System: S1P1 (Homo sapiens, UniProt P21453)
# Sequence (P21453 whole entry, species assumed): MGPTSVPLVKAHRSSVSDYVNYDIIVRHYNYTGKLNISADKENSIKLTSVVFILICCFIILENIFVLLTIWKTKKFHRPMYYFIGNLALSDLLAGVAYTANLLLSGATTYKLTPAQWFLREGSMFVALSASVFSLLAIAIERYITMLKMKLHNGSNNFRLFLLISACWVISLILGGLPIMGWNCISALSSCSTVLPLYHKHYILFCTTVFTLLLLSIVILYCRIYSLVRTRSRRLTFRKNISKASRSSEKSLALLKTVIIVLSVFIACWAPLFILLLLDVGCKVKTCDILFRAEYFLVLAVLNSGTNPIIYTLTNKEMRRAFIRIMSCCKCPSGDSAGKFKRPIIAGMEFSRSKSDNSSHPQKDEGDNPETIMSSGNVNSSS
# Assay Notes: [35S]-GTPγS binding assay, S1P1
# Measurement Parameters: CHO-S1P receptor membranes
Quick reference: EC50 of the listed items.
Please respond with the number in nM and leave the unit unwritten.

{"columns": ["Compound", "Recorded Measurement"],
 "data": [
  ["CCC1(O)CCc2c(-c3noc(-c4ccc(OC(C)C)c(C#N)c4)n3)cccc21 (centres unmarked) [compound 3]", 14]
]}

Could you now consider this next compound?
Give the reported EC50 for CC(C)Oc1ccc(-c2nc(-c3cccc4c3CCC4(O)C(C)C)no2)cc1C#N (centres unmarked) [compound 4] (system: S1P1 (Homo sapiens, UniProt P21453)).
7
